Molecular target: Pim2 kinase (Homo sapiens)
Sequence (Q9P1W9 whole entry): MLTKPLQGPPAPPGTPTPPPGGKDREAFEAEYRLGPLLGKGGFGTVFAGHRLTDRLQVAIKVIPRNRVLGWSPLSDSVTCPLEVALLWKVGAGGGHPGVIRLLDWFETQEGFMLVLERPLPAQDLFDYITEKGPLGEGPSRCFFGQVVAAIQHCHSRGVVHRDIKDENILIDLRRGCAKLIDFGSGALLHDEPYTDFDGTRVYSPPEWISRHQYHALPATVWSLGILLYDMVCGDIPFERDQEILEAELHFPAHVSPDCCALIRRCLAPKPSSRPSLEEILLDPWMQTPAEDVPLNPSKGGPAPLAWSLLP
Test: Pim2 ATP depletion assay;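 note: Luciferase-based luminescent readout of ATP remaining after PIM2 phosphorylates a BAD peptide, final 5 nM enzyme, 4 µM ATP, 10 µM peptide, 2.5% DMSO, run to roughly half ATP consumption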
Assay type: biochemical
Settings: read-out: IC50 (μM) PIM2
Experimental Endpoint: IC50

INSERT INTO measurements (compound, measured_value) VALUES
  ('CC(=O)NC1CCCN(c2ccncc2NC(=O)c2nc(Br)cnc2N)C1 (stereo not shown)', '> 25 µM'),
  ('Nc1ncc(Br)nc1C(=O)Nc1[nH]c(=O)ncc1N1CCCCC1', '< 1 µM'),
  ('NCCC(=O)N1CCN(c2ccncc2NC(=O)c2nc(Cl)c(N)nc2N)CC1', '< 1 µM'),
  ('Nc1nccnc1C(=O)Nc1[nH]c(=O)ncc1N1CCCC(C(F)(F)F)C1 (stereo not shown)', '< 1 µM'),
  ('Nc1ncc(Br)nc1C(=O)Nc1[nH]c(=O)ncc1N1CCCC(N)C1 (stereo not shown)', '< 1 µM'),
  ('Cc1cnc(N)c(C(=O)Nc2ccccc2N2CCCC(N)C2)n1 (stereo not shown)', '< 1 µM'),
  ('Nc1cc(F)c(-c2ccncc2)nc1C(=O)Nc1cnccc1N1CCC[C@H](N)C1', '< 1 µM'),
  ('Nc1ncc(-c2ccccc2Oc2ccccc2)nc1C(=O)Nc1ccccc1N1CCNCC1', '> 25 µM'),
  ('COc1ccc(N2CCC(N)CC2)c(NC(=O)c2nc(-c3ccccc3)cnc2N)c1', '< 1 µM'),
  ('Nc1ncc(Br)nc1C(=O)Nc1[nH]c(=O)ncc1-c1cccs1', '< 1 µM'),
  ('Nc1ncc(-c2cccc(Cl)c2)nc1C(=O)Nc1cnccc1N1CCCC(N)C1 (stereo not shown)', '< 1 µM'),
  ('N[C@H]1CCCN(c2ccncc2NC(=O)c2cccc(-c3ccccc3)n2)C1', '< 1 µM'),
  ('Nc1cc(F)cnc1C(=O)Nc1cnccc1N1CCC[C@H](N)C1', '< 1 µM'),
  ('CN(C)CCN(C)c1ccncc1NC(=O)c1nc(Br)cnc1N', '> 25 µM'),
  ('CCOc1ccc(F)c(-c2nc(C(=O)Nc3cnccc3N3CCC[C@H](N)C3)c(N)cc2F)c1F', '< 1 µM'),
  ('Nc1ccc(-c2cccc(F)c2F)nc1C(=O)Nc1cnccc1N1CCC[C@H](N)C1', '< 1 µM'),
  ('Nc1nccnc1C(=O)Nc1cc(C(F)(F)F)ccc1N1CCC(N)CC1', '10 to 25 µM'),
  ('CN(C)C(=O)c1ccc(F)c(-c2ccc(N)c(C(=O)Nc3cnccc3N3CCC[C@H](N)C3)n2)c1', '< 1 µM'),
  ('Nc1ncc(-c2ccccc2OC(F)(F)F)nc1C(=O)Nc1cnccc1N1CCCC(N)C1 (stereo not shown)', '< 1 µM'),
  ('N#CCc1cccc(-c2ccc(N)c(C(=O)Nc3cnccc3N3CCC[C@H](N)C3)n2)c1', '< 1 µM'),
  ('COC(=O)c1nc(-c2ccc(N)c(C(=O)Nc3cnccc3N3CCC[C@H](N)C3)n2)c(F)cc1N', '< 1 µM'),
  ('Nc1cc(F)c(-c2ccccc2F)nc1C(=O)Nc1cnccc1N1CCC[C@H](N)C1', '< 1 µM'),
  ('CCNC(=O)c1ccc(F)c(-c2ccc(N)c(C(=O)Nc3cnccc3N3CCC[C@H](N)C3)n2)c1', '< 1 µM'),
  ('Nc1ccc(-c2cnc(N)c(C(F)(F)F)c2)nc1C(=O)Nc1cnccc1N1CCC[C@H](N)C1', '< 1 µM'),
  ('NCCC(=O)N1CCN(c2ccncc2NC(=O)c2nccnc2N)CC1', '1 to 10 µM'),
  ('Nc1cc(F)c(Br)nc1C(=O)Nc1cnccc1N1CCC[C@H](N)C1', '< 1 µM'),
  ('Nc1ccc(-c2sccc2Cl)nc1C(=O)Nc1cnccc1N1CCC[C@H](N)C1', '< 1 µM'),
  ('CC(=O)c1ccc(N2CCCC(N)C2)c(NC(=O)c2nccnc2N)c1 (stereo not shown)', '1 to 10 µM'),
  ('Nc1cc(F)c(-c2cccc(S(N)(=O)=O)c2)nc1C(=O)Nc1cnccc1N1CCC[C@H](N)C1', '< 1 µM'),
  ('Nc1cc(-c2ccncc2NC(=O)c2cccc(-c3c(F)cccc3F)n2)nc(C(F)(F)F)n1', '< 1 µM'),
  ('Nc1nccnc1C(=O)Nc1cc(C(=O)c2ccccc2)ccc1N1CCC(N)CC1', '> 25 µM'),
  ('Cc1nc(N)cc(-c2ccncc2NC(=O)c2nc(-c3ccccc3F)ncc2N)n1', '< 1 µM'),
  ('CC(C)NC(=O)c1ccc(F)c(-c2ccc(N)c(C(=O)Nc3cnccc3N3CCC(F)(F)C(N)C3)n2)c1 (stereo not shown)', '< 1 µM'),
  ('CNC(=O)c1ccc(F)c(-c2ccc(N)c(C(=O)Nc3cnccc3N3CCC[C@H](N)C3)n2)c1', '< 1 µM');
